- Test system: Matrilysin (Homo sapiens, UniProt P09237)
- Sequence (P09237 whole entry): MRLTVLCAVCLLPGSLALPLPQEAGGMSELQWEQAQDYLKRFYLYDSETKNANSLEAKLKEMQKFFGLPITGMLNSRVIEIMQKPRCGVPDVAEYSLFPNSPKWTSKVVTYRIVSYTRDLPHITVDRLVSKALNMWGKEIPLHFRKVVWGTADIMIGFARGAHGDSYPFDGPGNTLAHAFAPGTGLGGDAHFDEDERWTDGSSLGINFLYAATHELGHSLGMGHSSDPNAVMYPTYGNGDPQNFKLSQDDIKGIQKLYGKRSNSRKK
- Assay text: In vitro inhibitory activity against human recombinant matrix metalloprotease 7
Exercise: for every item that follows, state its recorded log10 of IC50.
Give log10 of IC50, with IC50 taken in nM.

- C=CCC(C(=O)NO)C(CC(C)C)C(=O)N[C@@H](Cc1ccccc1)C(=O)CC (single isomer, unassigned): 1.59
- CNC(=O)[C@H](Cc1ccccc1)NC(=O)[C@H](CC(C)C)[C@H](CSc1cccs1)C(=O)NO: 0.38
- CC(C)CC(C(=O)N[C@H](C(=O)c1c[nH]c2ccccc12)C(C)(C)C)C(O)C(=O)NO (single isomer, unassigned): -0.52
- CC(C)C[C@H]1C(=O)N[C@H](C(=O)c2ccc[nH]2)Cc2ccc(cc2)OCCCC[C@@H]1C(=O)NO: 0.62

Attention now turns to another entry.
Param readout = log10 of IC50; param system = Matrilysin (Homo sapiens, UniProt P09237); param query = `CC(C)C[C@H]1C(=O)N[C@H](C(=O)c2ccccc2)Cc2ccc(cc2)OCCCC[C@@H]1C(=O)NO` ; response: value
0.52
